Tested Target: Keap1-Maltose Binding Protein (MBP tag) (Homo sapiens, UniProt Q14145)
Sequence (Q14145 whole entry): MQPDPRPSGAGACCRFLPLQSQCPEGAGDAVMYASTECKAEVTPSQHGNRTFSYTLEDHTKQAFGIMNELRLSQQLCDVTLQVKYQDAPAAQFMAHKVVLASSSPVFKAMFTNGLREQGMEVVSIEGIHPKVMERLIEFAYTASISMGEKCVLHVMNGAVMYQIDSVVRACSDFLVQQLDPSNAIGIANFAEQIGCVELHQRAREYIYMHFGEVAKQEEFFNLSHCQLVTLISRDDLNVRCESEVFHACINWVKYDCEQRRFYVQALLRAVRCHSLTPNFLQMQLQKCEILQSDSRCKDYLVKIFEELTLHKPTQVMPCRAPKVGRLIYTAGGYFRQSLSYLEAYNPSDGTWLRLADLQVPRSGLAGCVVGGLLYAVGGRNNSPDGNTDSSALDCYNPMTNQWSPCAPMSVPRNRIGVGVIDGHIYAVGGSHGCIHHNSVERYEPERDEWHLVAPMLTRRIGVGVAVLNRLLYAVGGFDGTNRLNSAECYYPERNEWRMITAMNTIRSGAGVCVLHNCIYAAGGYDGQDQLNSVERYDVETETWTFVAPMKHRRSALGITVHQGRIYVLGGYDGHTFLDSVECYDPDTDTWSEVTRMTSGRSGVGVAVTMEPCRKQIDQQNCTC
Assay Method Text: Nrf2-Keap1 HTRF (TR-FRET) binding assay: displacement of biotinylated ETGE peptide from Keap1-MBP
pIC50: −log10 of the molar value. Starred links: 1 amine or outer side, 2 acyl side, 3 side chain; linkers in the order of their positions; H or OH if unused. Positions of bridges follow the written chain, without caps; N, C: chain ends. Non-standard residues stand in square brackets, D forms with d. Residues, ends and D or L forms follow the SMILES beside them. *: point of attachment. Trp(2-yl) = O=C([C@H](Cc1c([*:3])[nH]c2ccccc12)N[*:1])[*:2]; X1 = O=C([C@@H]1C[C@H](N[*:3])CN1[*:1])[*:2]; oXylylene = c1ccc(C[*:2])c(C[*:1])c1; Stearoyl = CCCCCCCCCCCCCCCCCC(=O)*
Attribute Measured: pIC50

molecule="CCCCCCCCCCCCCCCCCC(=O)N1CCC[C@H]1C(=O)N[C@@H](CCC(N)=O)C(=O)N[C@H]1CSCc2ccccc2CSC[C@@H](C(=O)N[C@@H](CC(C)C)C(=O)N2CCC[C@@H]2C(N)=O)NC(=O)[C@H](CCC(=O)O)NC(=O)CNC(=O)[C@H]([C@@H](C)O)NC(=O)[C@H](CCC(=O)O)NC(=O)[C@@H]2CCCN2C(=O)[C@H](CC(=O)O)NC1=O [Example 76] (Stearoyl-PQCDPETGECL[dP]-NH2; linker 3-10 via oXylylene)" tested_target="Keap1-Maltose Binding Protein (MBP tag) (Homo sapiens, UniProt Q14145)" value_reported="7.00 to 9.00"
molecule="CCCCCCCCCCCCCCCCCCCC(=O)N[C@H]1C[C@H]2C(=O)N[C@@H](CCC(N)=O)C(=O)N[C@H]3CSCC4(COC4)CSC[C@H](NC(=O)[C@H](CCC(=O)O)NC(=O)CNC(=O)[C@H]([C@@H](C)O)NC(=O)[C@H](CCC(=O)O)NC(=O)[C@@H]4CCCN4C(=O)[C@H](CC(=O)O)NC3=O)C(=O)N[C@@H](CC(C)C)C(=O)N3CCC[C@@H]3C(=O)N2C1 [Example 95]" tested_target="Keap1-Maltose Binding Protein (MBP tag) (Homo sapiens, UniProt Q14145)" value_reported="> 9.00"
molecule="CC/C=C\\C/C=C\\C/C=C\\CCCCCCCC(=O)N[C@H]1C[C@H]2C(=O)N[C@@H](CCC(N)=O)C(=O)N[C@H]3CSCc4ccccc4CSC[C@H](NC(=O)[C@H](CCC(=O)O)NC(=O)CNC(=O)[C@H]([C@@H](C)O)NC(=O)[C@H](CCC(=O)O)NC(=O)[C@@H]4CCCN4C(=O)[C@H](CC(=O)O)NC3=O)C(=O)N[C@@H](CC(C)C)C(=O)N3CCC[C@@H]3C(=O)N2C1 [Example 86]" tested_target="Keap1-Maltose Binding Protein (MBP tag) (Homo sapiens, UniProt Q14145)" value_reported="> 9.00"
molecule="CCCCCCCCCCCCCCCC(=O)N[C@H]1C[C@H]2C(=O)N[C@@H](CCC(N)=O)C(=O)N[C@H]3CSCc4ccccc4CSC[C@H](NC(=O)[C@H](CCC(=O)O)NC(=O)CNC(=O)[C@H]([C@@H](C)O)NC(=O)[C@H](CCC(=O)O)NC(=O)[C@@H]4CCCN4C(=O)[C@H](CC(=O)O)NC3=O)C(=O)N[C@@H](CC(C)C)C(=O)N3CCC[C@@H]3C(=O)N2C1 [Example 83]" tested_target="Keap1-Maltose Binding Protein (MBP tag) (Homo sapiens, UniProt Q14145)" value_reported="> 9.00"
molecule="CC(=O)N[C@H]1Cc2c([nH]c3ccccc23)SC[C@@H](C(N)=O)NC(=O)[C@H](CCC(=O)O)NC(=O)CNC(=O)[C@H]([C@@H](C)O)NC(=O)[C@H](CCC(=O)O)NC(=O)[C@H](CCC(=O)O)NC(=O)[C@H](CC(=O)O)NC1=O [Example 7] (Ac-[Trp(2-yl)]DEETGEC-NH2; thioether 1-8)" tested_target="Keap1-Maltose Binding Protein (MBP tag) (Homo sapiens, UniProt Q14145)" value_reported="7.00 to 9.00"
molecule="CCCCCCCCCCCCCCCCCC(=O)N[C@H]1C[C@H]2C(=O)N[C@@H](CCC(N)=O)C(=O)N[C@H]3CSCc4ccccc4CSC[C@H](NC(=O)[C@H](CCC(=O)O)NC(=O)CNC(=O)[C@H]([C@@H](C)O)NC(=O)[C@H](CCC(=O)O)NC(=O)[C@@H]4C[C@H](F)CN4C(=O)[C@H](CC(=O)O)NC3=O)C(=O)N[C@@H](CC(C)C)C(=O)N3CCC[C@@H]3C(=O)N2C1 [Example 72]" tested_target="Keap1-Maltose Binding Protein (MBP tag) (Homo sapiens, UniProt Q14145)" value_reported="7.00 to 9.00"
molecule="CC(=O)N[C@H]1C[C@H]2C(=O)N[C@@H](CCC(N)=O)C(=O)N[C@H]3CSCc4ccccc4CSC[C@H](NC(=O)[C@H](CCC(=O)O)NC(=O)CNC(=O)[C@H]([C@@H](C)O)NC(=O)[C@H](CCC(=O)O)NC(=O)[C@@H]4CCCN4C(=O)[C@H](CC(=O)O)NC3=O)C(=O)N[C@@H](CC(C)C)C(=O)N3CCC[C@@H]3C(=O)N2C1 [Example 64]" tested_target="Keap1-Maltose Binding Protein (MBP tag) (Homo sapiens, UniProt Q14145)" value_reported="> 9.00"
molecule="CCCCCCCCCCCCCCCCCC(=O)N[C@H]1C[C@H]2C(=O)N[C@@H](CCC(N)=O)C(=O)N[C@H]3CSCc4ccccc4CSC[C@H](NC(=O)[C@H](CCC(=O)O)NC(=O)CNC(=O)[C@H]([C@@H](C)O)NC(=O)[C@H](CCC(=O)O)NC(=O)[C@@H]4CCCN4C(=O)[C@H](CC(=O)O)NC3=O)C(=O)N[C@@H](CCCCN)C(=O)N3CCC[C@@H]3C(=O)N2C1 [Example 82] (cyclo(CDPETGECK[dP][X1](Stearoyl)Q); linker 1-8 via oXylylene)" tested_target="Keap1-Maltose Binding Protein (MBP tag) (Homo sapiens, UniProt Q14145)" value_reported="7.00 to 9.00"
molecule="CCCCCCCC/C=C/CCCCCCCC(=O)N[C@H]1C[C@H]2C(=O)N[C@@H](CCC(N)=O)C(=O)N[C@H]3CSCc4ccccc4CSC[C@H](NC(=O)[C@H](CCC(=O)O)NC(=O)CNC(=O)[C@H]([C@@H](C)O)NC(=O)[C@H](CCC(=O)O)NC(=O)[C@@H]4CCCN4C(=O)[C@H](CC(=O)O)NC3=O)C(=O)N[C@@H](CC(C)C)C(=O)N3CCC[C@@H]3C(=O)N2C1 [Example 87]" tested_target="Keap1-Maltose Binding Protein (MBP tag) (Homo sapiens, UniProt Q14145)" value_reported="7.00 to 9.00"
molecule="CCCCCCCCCCCCCCCCCC(=O)N[C@H]1C[C@H]2C(=O)N[C@@H](CCC(N)=O)C(=O)N[C@H]3CSCc4ccccc4CSC[C@H](NC(=O)[C@H](CCC(=O)O)NC(=O)CNC(=O)[C@H]([C@@H](C)O)NC(=O)[C@H](CCC(=O)O)NC(=O)[C@@H]4C[C@H](N)CN4C(=O)[C@H](CC(=O)O)NC3=O)C(=O)N[C@@H](CC(C)C)C(=O)N3CCC[C@@H]3C(=O)N2C1 [Example 73]" tested_target="Keap1-Maltose Binding Protein (MBP tag) (Homo sapiens, UniProt Q14145)" value_reported="7.00 to 9.00"
molecule="CCCCCCCCCCCCCCCCCCC(=O)N[C@H]1C[C@H]2C(=O)N[C@@H](CCC(N)=O)C(=O)N[C@H]3CSCc4ccccc4CSC[C@H](NC(=O)[C@H](CCC(=O)O)NC(=O)CNC(=O)[C@H]([C@@H](C)O)NC(=O)[C@H](CCC(=O)O)NC(=O)[C@@H]4CCCN4C(=O)[C@H](CC(=O)O)NC3=O)C(=O)N[C@@H](CC(C)C)C(=O)N3CCC[C@@H]3C(=O)N2C1 [Example 98]" tested_target="Keap1-Maltose Binding Protein (MBP tag) (Homo sapiens, UniProt Q14145)" value_reported="> 9.00"
molecule="CCCCCCCCCCCCCCCCCC(=O)N[C@H]1C[C@@H](C(=O)N[C@@H](CCC(N)=O)C(=O)N[C@H]2CSCc3ccccc3CSC[C@@H](C(=O)N[C@@H](CC(C)C)C(=O)N3CCC[C@@H]3C(N)=O)NC(=O)[C@H](CCC(=O)O)NC(=O)CNC(=O)[C@H]([C@@H](C)O)NC(=O)[C@H](CCC(=O)O)NC(=O)[C@@H]3CCCN3C(=O)[C@H](CC(=O)O)NC2=O)N(C(C)=O)C1 [Example 75]" tested_target="Keap1-Maltose Binding Protein (MBP tag) (Homo sapiens, UniProt Q14145)" value_reported="7.00 to 9.00"
